test system: KAI3 (IL-2 2.5 ng/mL); assay: percent inhibition of viability; higher = more inhibition; details: 72 h; 10 nM;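 note: normalised to DMSO-only wells as negative and benzethonium chloride as positive control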
value_type: percent inhibition of viability (%)
Give the quantity in %, number only.

// solved cases for percent inhibition of viability follow
| compound | percent inhibition of viability (%) |
| --- | --- |
| CNC(=O)c1ccc(N2C(=S)N(c3cnc(C#N)c(C(F)(F)F)c3)C(=O)C23CCC3)cc1F [ARN 509] (max concentration tested 10000 nM) | -12.9 |
| C=CCc1cccc(/C=N/NC(=O)CN2CCN(Cc3ccccc3)CC2)c1O [PAC-1] (max concentration tested 10000 nM) | -3.85 |
| N#CC[C@H](C1CCCC1)n1cc(-c2ncnc3[nH]ccc23)cn1 [Ruxolitinib] (max concentration tested 10000 nM) | 33.2 |
| Nc1ccn([C@@H]2O[C@H](CO)[C@@H](O)[C@@H]2O)c(=O)n1 [Cytarabine] (max concentration tested 10000 nM) | 12.5 |
| O=C(Nc1cccnc1)N1CCC(Cc2cccc(Oc3ccc(C(F)(F)F)cn3)c2)CC1 [PF-3845] (max concentration tested 10000 nM) | -6.82 |

[Q] Form field: reported percent inhibition of viability of CC(C)(C)c1cc(NC(=O)Nc2ccc(-c3cn4c(n3)sc3cc(OCCN5CCOCC5)ccc34)cc2)no1 [Quizartinib] (max concentration tested 1000 nM)
[A] 2.67
